Measured values drawn from BindingDB's records for doi:10.1124/jpet.104.078303 for this set.

Target: Histamine H4 receptor (Homo sapiens)
Sequence (Q9H3N8 whole entry): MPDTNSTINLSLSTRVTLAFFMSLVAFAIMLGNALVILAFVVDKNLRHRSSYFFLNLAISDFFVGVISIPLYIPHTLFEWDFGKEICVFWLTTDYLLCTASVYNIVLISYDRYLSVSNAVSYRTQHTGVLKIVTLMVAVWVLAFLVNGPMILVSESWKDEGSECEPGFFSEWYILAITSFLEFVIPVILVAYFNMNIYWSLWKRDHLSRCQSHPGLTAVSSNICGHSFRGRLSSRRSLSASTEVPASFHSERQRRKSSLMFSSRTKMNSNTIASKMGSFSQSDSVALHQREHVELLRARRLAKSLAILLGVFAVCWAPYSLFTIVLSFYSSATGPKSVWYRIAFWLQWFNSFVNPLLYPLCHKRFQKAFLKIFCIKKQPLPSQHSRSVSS
MEASURE NAME: pKi
In plain terms, pKi is the concentration in mol/L turned into minus its base-10 logarithm.

Short answer for CC(C)(C)CCC#C[C@@H]1C[C@H]1c1c[nH]cn1 : pKi was 7.29

###

Target: Histamine H3 receptor (Cavia porcellus, UniProt Q9JI35)
Sequence (Q9JI35 whole entry): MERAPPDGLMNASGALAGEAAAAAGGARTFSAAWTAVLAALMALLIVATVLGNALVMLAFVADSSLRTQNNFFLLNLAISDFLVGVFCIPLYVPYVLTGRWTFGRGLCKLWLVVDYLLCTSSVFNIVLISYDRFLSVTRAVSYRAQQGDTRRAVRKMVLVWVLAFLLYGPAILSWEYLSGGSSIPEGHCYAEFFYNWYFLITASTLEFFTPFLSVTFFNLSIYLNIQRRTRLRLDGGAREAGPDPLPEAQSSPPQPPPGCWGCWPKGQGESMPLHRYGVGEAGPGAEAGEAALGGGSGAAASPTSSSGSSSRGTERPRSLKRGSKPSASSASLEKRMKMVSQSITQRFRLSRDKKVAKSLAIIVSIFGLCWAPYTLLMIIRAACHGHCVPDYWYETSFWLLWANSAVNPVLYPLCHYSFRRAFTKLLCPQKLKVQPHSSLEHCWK
MEASURE NAME: pKi
In plain terms, pKi is the concentration in mol/L turned into minus its base-10 logarithm.

Short answer for CC(C)(C)CCC#C[C@@H]1C[C@H]1c1c[nH]cn1 : pKi was 9.20

###

Histamine receptor H3 (Canis lupus familiaris, UniProt Q865E3) Ki data
Sequence (Q865E3 whole entry): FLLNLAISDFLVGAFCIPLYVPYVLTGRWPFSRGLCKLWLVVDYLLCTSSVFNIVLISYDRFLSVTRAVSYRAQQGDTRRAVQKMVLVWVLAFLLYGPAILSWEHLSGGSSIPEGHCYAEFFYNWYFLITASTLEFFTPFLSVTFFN
Report as a plain number; the unit nM is understood.

Please review the following examples before continuing.
Short answer for C[C@@H]1CC[C@@H](C)N1CCCOc1ccc(-c2ccc(C(=O)N3CCOCC3)cc2)cc1 : Ki was 1.2

Short answer for CC(C)(C)CCC#C[C@@H]1C[C@H]1c1c[nH]cn1 : Ki was 1.32

Next compound, please.
Short answer for C[C@@H]1CCCN1CCc1cc2cc(-c3ccc(C#N)cc3)ccc2o1 : Ki was 3.89
